MIC / MEC: recorded values
Test system: Cryptococcus gattii
Test: MIC broth microdilution (CLSI)
Assay type: cell-based
Conditions: Cryptococcus gattii PNG27
Supply the numeric figure in µg/mL, leaving out any unit text.

Solved cases (2 shown):
C[C@@H](c1ncncc1F)[C@](O)(Cn1cncn1)c1ccc(F)cc1F : 0.06
O=P(O)(O)C(O)(Cn1ccnc1)P(=O)(O)O [ZOL, zoledronate] : 128

-- ask Lab note: need MIC / MEC with Cryptococcus gattii for entry CCCCCCCCCCn1cc[n+](CC(O)(P(=O)(O)O)P(=O)(O)O)c1 [10-ZOL, Decyl-zoledronate] , please look it up.
-- reply 0.5

-- ask Lab note: need MIC / MEC with Cryptococcus gattii for entry `CC[C@H](C)C[C@H](C)CCCCCCCCC(=O)N[C@H]1C[C@@H](O)[C@@H](NCCN)NC(=O)[C@@H]2[C@@H](O)CCN2C(=O)[C@H]([C@H](O)CCN)NC(=O)[C@H]([C@H](O)[C@@H](O)c2ccc(O)cc2)NC(=O)[C@@H]2C[C@@H](O)CN2C(=O)[C@H]([C@@H](C)O)NC1=O` , please look it up.
-- reply 8

-- ask Lab note: need MIC / MEC with Cryptococcus gattii for entry `OC(Cn1cncn1)(Cn1cncn1)c1ccc(F)cc1F` , please look it up.
-- reply 2

-- ask Lab note: need MIC / MEC with Cryptococcus gattii for entry CCC(C)n1ncn(-c2ccc(N3CCN(c4ccc(OCC5COC(Cn6cncn6)(c6ccc(Cl)cc6Cl)O5)cc4)CC3)cc2)c1=O (stereo not drawn) , please look it up.
-- reply 0.25

Data origin, for the record: paper PMC12892976
